Test system: Candida albicans
Assay: Antimicrobial activity against Candida albicans ATCC 90028
Type: functional, organism-based
Activity calls are given as the source filed them. The rule behind the calls is not given here.
Metric: Activity

- Smiles data: "C=C1C[C@@]23CC[C@H]4[C@@](C)(CCC[C@@]4(C)C(=O)O[C@@H]4O[C@H](CO)[C@@H](O)[C@H](O)[C@H]4O)[C@@H]2CC[C@]1(O[C@@H]1O[C@H](CO)[C@@H](O)[C@H](O[C@@H]2OC[C@@H](O)[C@H](O)[C@H]2O)[C@H]1O[C@@H]1O[C@H](CO)[C@@H](O)[C@H](O)[C@H]1O)C3"
  Metric: "Activity"
  Reported value: "inactive"
- Smiles data: "C=C1C[C@@]23CC[C@H]4[C@@](C)(CCC[C@@]4(C)C(=O)O[C@@H]4O[C@H](CO)[C@@H](O)[C@H](O)[C@H]4O[C@@H]4O[C@H](CO)[C@@H](O)[C@H](O)[C@H]4O)[C@@H]2CC[C@]1(O[C@@H]1O[C@H](CO)[C@@H](O)[C@H](O[C@@H]2O[C@H](CO)[C@@H](O)[C@H](O)[C@H]2O)[C@H]1O[C@@H]1O[C@H](CO)[C@@H](O)[C@H](O)[C@H]1O)C3"
  Metric: "Activity"
  Reported value: "inactive"
- Smiles data: "C=C1C[C@@]23CC[C@H]4[C@@](C)(CCC[C@@]4(C)C(=O)O[C@@H]4O[C@H](CO)[C@@H](O)[C@H](O)[C@H]4O)[C@@H]2CC[C@]1(O[C@@H]1O[C@H](CO)[C@@H](O)[C@H](O)[C@H]1O[C@@H]1O[C@H](CO)[C@@H](O)[C@H](O[C@@H]2O[C@H](CO)[C@@H](O)[C@H](O)[C@H]2O)[C@H]1O)C3"
  Metric: "Activity"
  Reported value: "inactive"
